Taken from patent US6498154B1.

Provide the recorded melting point for the entries that follow.

Request: Given the compound CC1(C)CC(=O)Nc2ccc(-c3cccc(Cl)c3)cc21 , what is its reported melting point?
Response: 211 to 215 °C

Request: Follow-up entry: Cc1cc(C#N)sc1-c1ccc2c(c1)C(C)(C)OC(C(F)(F)F)N2 (stereo not drawn)
Response: 97 to 98 °C

Request: Follow-up entry: Cc1cc(C#N)sc1-c1ccc2c(c1)C(C)(C)OC(C)N2 (stereo not drawn)
Response: 145 to 146 °C

Request: Follow-up entry: C[C@@H]1Nc2ccc(-c3cc(F)cc(C#N)c3)cc2[C@](C)(c2ccccc2)O1
Response: 128 to 129 °C

Request: Follow-up entry: CC1(C)CC(=O)Nc2ccc(-c3cc(F)cc(C#N)c3)cc21
Response: 249 to 250 °C

Request: Follow-up entry: CC1Nc2ccc(-c3csc(C#N)c3)cc2C2(CCCCC2)O1 (stereo not drawn)
Response: 111 to 112 °C

Request: Follow-up entry: CC1(C)OC(C(F)(F)F)Nc2ccc(-c3cc(F)cc(C#N)c3)cc21 (stereo not drawn)
Response: 102 to 103 °C

Request: Follow-up entry: CC1(C)CC(=O)Nc2ccc(-c3cccc(C#N)c3)cc21
Response: 190 to 192 °C

Request: Follow-up entry: CC1OC(C)(C)Nc2ccc(-c3cccc([N+](=O)[O-])c3)cc21 (stereo not drawn)
Response: 188 to 189 °C

* * *

observed-property: melting point

Request: Given the compound CC1Nc2ccc(-c3ccc(C#N)s3)cc2C(C)(C)O1 (stereo not shown) [Example 13] , what is its reported melting point?
Response: 172 to 173 °C

Request: Follow-up entry: CC1Nc2ccc(-c3ccc(C#N)[nH]3)cc2C(C)(C)O1 (stereo not shown) [Example 20]
Response: 201 to 202 °C

Request: Follow-up entry: CC1(C)CC(=S)Nc2ccc(-c3cc(F)cc(C#N)c3)cc21 [Example 46]
Response: 240 to 242 °C (dec.)

Request: Follow-up entry: CN1C(=O)Nc2ccc(-c3cccc(Cl)c3)cc2C1(C)C1CC1 (stereo not shown) [drawing 34, R = Me]
Response: 193 to 194 °C

Request: Follow-up entry: CC1Nc2ccc(-c3csc(C#N)c3)cc2C(C)(C)O1 (stereo not shown) [Example 15]
Response: 175 to 176 °C

Request: Follow-up entry: CC1(C)OC(C(F)(F)F)Nc2ccc(-c3cccc(Cl)c3)cc21 (stereo not shown) [Example 39]
Response: 108 to 109 °C

Request: Follow-up entry: CC1Nc2ccc(-c3cccc(Cl)c3)cc2C(C)(C)O1 (stereo not shown) [Example 28]
Response: 144 to 146 °C

Request: Follow-up entry: CC1(C2CC2)NC(=O)Nc2ccc(-c3cccc(Cl)c3)cc21 (stereo not shown) [drawing 34, R = H]
Response: 125 to 127 °C

Request: Follow-up entry: CC1Nc2ccc(-c3ccc(F)c(C#N)c3)cc2C(C)(C)O1 (stereo not shown) [Example 30]
Response: 184 to 186 °C

Request: Follow-up entry: CC1Nc2ccc(-c3cccc(F)c3)cc2C(C)(C)O1 (stereo not shown) [Example 27]
Response: 139 to 140 °C

Request: Follow-up entry: CC1(C)CC(=O)Nc2ccc(-c3cccc(F)c3)cc21 [Example 40]
Response: 190 to 192 °C

Request: Follow-up entry: CC1OC(C)(C)c2cc(-c3ccc(C#N)n3C(=O)OC(C)(C)C)ccc2N1C(=O)OCC1c2ccccc2-c2ccccc21 (stereo not shown) [Example 19]
Response: 135 to 136 °C

Request: Follow-up entry: CC1Nc2ccc(-c3cc(F)cc(C#N)c3)cc2C(C)(C)O1 (stereo not shown) [Example 14]
Response: 163 to 164 °C

Request: Follow-up entry: CC1Nc2ccc(-c3coc(C#N)c3)cc2C(C)(C)O1 (stereo not shown) [Example 31]
Response: 116 to 118 °C

Request: Follow-up entry: CC1Nc2ccc(-c3ccc(F)c(Cl)c3)cc2C(C)(C)O1 (stereo not shown) [Example 29]
Response: 173 to 175 °C

Request: Follow-up entry: CC1(C)CC(=S)Nc2ccc(-c3cccc(F)c3)cc21 [Example 44]
Response: 209 to 211 °C
